Target: PAR4 (Homo sapiens (Human), UniProt Q96RI0)
Sequence (Q96RI0 18-385): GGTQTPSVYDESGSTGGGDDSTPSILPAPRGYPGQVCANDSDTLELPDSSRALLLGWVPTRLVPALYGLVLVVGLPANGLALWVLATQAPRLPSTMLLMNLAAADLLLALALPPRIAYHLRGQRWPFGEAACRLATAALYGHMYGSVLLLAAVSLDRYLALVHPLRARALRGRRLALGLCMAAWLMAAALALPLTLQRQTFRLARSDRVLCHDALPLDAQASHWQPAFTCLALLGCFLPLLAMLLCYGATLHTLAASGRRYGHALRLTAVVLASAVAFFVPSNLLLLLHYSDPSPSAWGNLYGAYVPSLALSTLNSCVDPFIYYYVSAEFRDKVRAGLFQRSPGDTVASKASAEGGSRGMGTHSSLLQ
Assay: FLIPR assay in PAR4-expressing HEK293 cells (PAR4 antagonist activity)
Conditions: H-Ala-Phe(4-F)-Pro-Gly-Trp-Leu-Val-Lys-Asn-Gly-NH2-induced intracellular calcium mobilization, 11-point curves
pIC50: −log10 of the molar value.
Item-by-item account of pIC50
Quantity measured: pIC50

[[record]]
compound = "CCOC(=O)c1ccc(N2CCCCC2COc2cc(OC)cc3oc(-c4cn5nc(OC)sc5n4)cc23)cc1 (stereo not shown) [Example 45]"
readout_number = 6.43

[[record]]
compound = "COc1ccc(N2CCN(C(=O)OC(C)(C)C)CC2COc2cc(OC)cc3oc(-c4cn5nc(C)ccc5n4)cc23)cc1 (stereo not shown) [Example 3]"
readout_number = 5.92

[[record]]
compound = "COc1cc(OCC2CCCN(c3ccc(NC(=O)OC(C)(C)C)cc3)C2)c2cc(-c3cn4nc(OC)sc4n3)oc2c1 (stereo not shown) [Example 68]"
readout_number = 5.68

[[record]]
compound = "COc1cc(OC[C@@H]2CCCN2c2ccc(C#N)cc2)c2cc(-c3cn4nc(OC)sc4n3)oc2c1 [Example 16]"
readout_number = 6.30

[[record]]
compound = "COc1cc(OCC2CCCN(c3nncs3)C2)c2cc(-c3cn4nc(OC)sc4n3)oc2c1 (stereo not shown) [Example 60]"
readout_number = 5.57

[[record]]
compound = "COc1cc(OCC2CCN(c3ccc(F)cc3)CC2)c2cc(-c3cn4nc(OC)sc4n3)oc2c1 [Example 50]"
readout_number = 5.32

[[record]]
compound = "COc1cc(OCC2CCCN(c3ccc(NC(=O)OC(C)(C)C)nc3)C2)c2cc(-c3cn4nc(OC)sc4n3)oc2c1 (stereo not shown) [Example 69]"
readout_number = 5.49

